molecular target: Dopamine beta-hydroxylase (Rattus norvegicus); test: Inhibition of Dopamine beta hydroxylase in spontaneously hypertensive rats; Value range from 8.9-13
Attribute measured: IC50 (µM)
Unit µM implied. Number only.

Prompt: // lookup IC50 for S=c1[nH]ccn1Cc1ccccc1
Response: 11

---

molecular target: Dopamine beta-hydroxylase (Rattus norvegicus, UniProt Q05754)
Attribute measured: pIC50
Quick note: pIC50 means taking -log10 of the concentration in moles per liter.

Prompt: Quick check: pIC50 of Fc1cc(F)cc(Cn2cc[nH]c2=S)c1 ?
Response: 5.92

---

Molecular target: Dopamine beta-hydroxylase (Rattus norvegicus)
Sequence (Q05754 whole entry): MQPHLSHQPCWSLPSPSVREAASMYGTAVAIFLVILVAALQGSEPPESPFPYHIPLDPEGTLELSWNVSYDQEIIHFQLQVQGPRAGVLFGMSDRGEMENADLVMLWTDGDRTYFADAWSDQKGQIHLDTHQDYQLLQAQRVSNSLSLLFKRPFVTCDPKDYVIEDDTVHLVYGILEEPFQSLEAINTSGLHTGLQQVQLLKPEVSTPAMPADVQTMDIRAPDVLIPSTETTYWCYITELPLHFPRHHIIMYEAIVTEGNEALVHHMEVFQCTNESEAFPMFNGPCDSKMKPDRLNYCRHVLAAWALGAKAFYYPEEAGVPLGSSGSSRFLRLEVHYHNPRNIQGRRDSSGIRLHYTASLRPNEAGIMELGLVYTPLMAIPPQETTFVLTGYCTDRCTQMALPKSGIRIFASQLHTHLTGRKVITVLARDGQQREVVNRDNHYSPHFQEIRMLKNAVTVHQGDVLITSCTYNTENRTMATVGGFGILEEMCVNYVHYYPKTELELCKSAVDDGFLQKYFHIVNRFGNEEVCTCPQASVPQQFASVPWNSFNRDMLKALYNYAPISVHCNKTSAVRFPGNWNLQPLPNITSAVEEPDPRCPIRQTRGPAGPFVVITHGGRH
Assay: Inhibition of Dopamine beta hydroxylase in spontaneously hypertensive rats; Value ranges from 1.3-4.6
Attribute measured: pIC50
In plain terms, pIC50 is the concentration in mol/L turned into minus its base-10 logarithm.

Prompt: # query: pIC50 | item Oc1ccc(Cn2cc[nH]c2=S)cc1 | system: Dopamine beta-hydroxylase (Rattus norvegicus)
Response: 5.59

---

target: Dopamine beta-hydroxylase (Rattus norvegicus, UniProt Q05754); experiment: Inhibition of Dopamine beta hydroxylase in spontaneously hypertensive rats; Value ranges from 0.4-1.1
Attribute measured: IC50
Form field: result (number plus unit)

Prompt: Would you mind telling me what IC50 value was observed for CCCCc1ccc(C(=O)O)nc1 [FUSARIC ACID] ?
Response: 700 nM

---

Target: Dopamine beta-hydroxylase (Rattus norvegicus, UniProt Q05754)
Sequence (Q05754 whole entry): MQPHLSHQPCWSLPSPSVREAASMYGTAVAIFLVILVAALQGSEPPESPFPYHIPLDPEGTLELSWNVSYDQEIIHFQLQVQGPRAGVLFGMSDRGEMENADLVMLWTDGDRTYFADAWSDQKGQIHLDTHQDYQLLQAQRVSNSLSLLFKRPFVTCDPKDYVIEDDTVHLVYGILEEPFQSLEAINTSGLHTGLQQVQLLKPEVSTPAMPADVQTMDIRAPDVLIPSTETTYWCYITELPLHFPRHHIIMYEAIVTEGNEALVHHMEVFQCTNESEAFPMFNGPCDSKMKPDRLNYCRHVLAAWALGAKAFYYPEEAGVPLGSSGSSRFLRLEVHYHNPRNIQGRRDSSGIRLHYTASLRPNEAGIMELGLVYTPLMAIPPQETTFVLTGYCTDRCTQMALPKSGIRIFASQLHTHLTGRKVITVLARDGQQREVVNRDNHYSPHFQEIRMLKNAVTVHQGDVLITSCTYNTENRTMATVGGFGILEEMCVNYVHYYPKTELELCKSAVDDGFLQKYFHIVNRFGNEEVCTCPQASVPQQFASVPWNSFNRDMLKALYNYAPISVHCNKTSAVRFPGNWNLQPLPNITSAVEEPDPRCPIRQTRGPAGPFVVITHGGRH
Experiment: Inhibition of Dopamine beta hydroxylase in spontaneously hypertensive rats; Value ranges from 89-121
Attribute measured: IC50
Answer format: number, then unit.

Prompt: Suppose we examine the compound Sc1nccn1Cc1cccnc1 ; what IC50 value has been reported?
Response: 104 µM
